- assayConditions: in ethylene glycol, 318.2 K
resultType: solubility (mole fraction)
# output: bare number, no unit

# get_value(readout='solubility (mole fraction)', item= COc1cc2nccc(Oc3ccc(NC(=O)C4(C(=O)Nc5ccc(F)cc5)CC4)cc3)c2cc1OC.O=C(O)C[C@H](O)C(=O)O )
0.00138

---

- assayConditions: in PEG-400, 303.2 K
resultType: solubility (mole fraction)
# output: bare number, no unit

# get_value(readout='solubility (mole fraction)', item= COc1cc2nccc(Oc3ccc(NC(=O)C4(C(=O)Nc5ccc(F)cc5)CC4)cc3)c2cc1OC.O=C(O)C[C@H](O)C(=O)O )
0.00538

---

- assayConditions: in PEG-400, 298.2 K
resultType: solubility (mole fraction)
# output: bare number, no unit

# get_value(readout='solubility (mole fraction)', item= COc1cc2nccc(Oc3ccc(NC(=O)C4(C(=O)Nc5ccc(F)cc5)CC4)cc3)c2cc1OC.O=C(O)C[C@H](O)C(=O)O )
0.00354

---

- assayConditions: in sec-butanol, 318.2 K
resultType: solubility (mole fraction)
# output: bare number, no unit

# get_value(readout='solubility (mole fraction)', item= COc1cc2nccc(Oc3ccc(NC(=O)C4(C(=O)Nc5ccc(F)cc5)CC4)cc3)c2cc1OC.O=C(O)C[C@H](O)C(=O)O )
0.00221

---

- assayConditions: in transcutol, 298.2 K
resultType: solubility (mole fraction)
# output: bare number, no unit

# get_value(readout='solubility (mole fraction)', item= COc1cc2nccc(Oc3ccc(NC(=O)C4(C(=O)Nc5ccc(F)cc5)CC4)cc3)c2cc1OC.O=C(O)C[C@H](O)C(=O)O )
0.00179

---

- assayConditions: in ethanol, 308.2 K
resultType: solubility (mole fraction)

# get_value(readout='solubility (mole fraction)', item= COc1cc2nccc(Oc3ccc(NC(=O)C4(C(=O)Nc5ccc(F)cc5)CC4)cc3)c2cc1OC.O=C(O)C[C@H](O)C(=O)O )
0.000724

---

- assayConditions: in sec-butanol, 308.2 K
resultType: solubility (mole fraction)
# output: bare number, no unit

# get_value(readout='solubility (mole fraction)', item= COc1cc2nccc(Oc3ccc(NC(=O)C4(C(=O)Nc5ccc(F)cc5)CC4)cc3)c2cc1OC.O=C(O)C[C@H](O)C(=O)O )
0.00135

---

- assayConditions: in isopropanol, 308.2 K
resultType: solubility (mole fraction)

# get_value(readout='solubility (mole fraction)', item= COc1cc2nccc(Oc3ccc(NC(=O)C4(C(=O)Nc5ccc(F)cc5)CC4)cc3)c2cc1OC.O=C(O)C[C@H](O)C(=O)O )
0.000944

---

- assayConditions: in n-butanol, 303.2 K
resultType: solubility (mole fraction)
# output: bare number, no unit

# get_value(readout='solubility (mole fraction)', item= COc1cc2nccc(Oc3ccc(NC(=O)C4(C(=O)Nc5ccc(F)cc5)CC4)cc3)c2cc1OC.O=C(O)C[C@H](O)C(=O)O )
0.000932

---

- assayConditions: in ethyl acetate, 318.2 K
resultType: solubility (mole fraction)
# output: bare number, no unit

# get_value(readout='solubility (mole fraction)', item= COc1cc2nccc(Oc3ccc(NC(=O)C4(C(=O)Nc5ccc(F)cc5)CC4)cc3)c2cc1OC.O=C(O)C[C@H](O)C(=O)O )
0.000415

---

- assayConditions: in propylene glycol, 303.2 K
resultType: solubility (mole fraction)
# output: bare number, no unit

# get_value(readout='solubility (mole fraction)', item= COc1cc2nccc(Oc3ccc(NC(=O)C4(C(=O)Nc5ccc(F)cc5)CC4)cc3)c2cc1OC.O=C(O)C[C@H](O)C(=O)O )
0.00098

---

- assayConditions: in n-butanol, 318.2 K
resultType: solubility (mole fraction)
# output: bare number, no unit

# get_value(readout='solubility (mole fraction)', item= COc1cc2nccc(Oc3ccc(NC(=O)C4(C(=O)Nc5ccc(F)cc5)CC4)cc3)c2cc1OC.O=C(O)C[C@H](O)C(=O)O )
0.00215

---

- assayConditions: in isopropanol, 298.2 K
resultType: solubility (mole fraction)
# output: bare number, no unit

# get_value(readout='solubility (mole fraction)', item= COc1cc2nccc(Oc3ccc(NC(=O)C4(C(=O)Nc5ccc(F)cc5)CC4)cc3)c2cc1OC.O=C(O)C[C@H](O)C(=O)O )
0.000529

---

- assayConditions: in water, 298.2 K
resultType: solubility (mole fraction)
# output: bare number, no unit

# get_value(readout='solubility (mole fraction)', item= COc1cc2nccc(Oc3ccc(NC(=O)C4(C(=O)Nc5ccc(F)cc5)CC4)cc3)c2cc1OC.O=C(O)C[C@H](O)C(=O)O )
2.27e-07

---

- assayConditions: in water, 303.2 K
resultType: solubility (mole fraction)
# output: bare number, no unit

# get_value(readout='solubility (mole fraction)', item= COc1cc2nccc(Oc3ccc(NC(=O)C4(C(=O)Nc5ccc(F)cc5)CC4)cc3)c2cc1OC.O=C(O)C[C@H](O)C(=O)O )
3.4e-07

---

- assayConditions: in DMSO, 318.2 K
resultType: solubility (mole fraction)
# output: bare number, no unit

# get_value(readout='solubility (mole fraction)', item= COc1cc2nccc(Oc3ccc(NC(=O)C4(C(=O)Nc5ccc(F)cc5)CC4)cc3)c2cc1OC.O=C(O)C[C@H](O)C(=O)O )
0.0435

---

- assayConditions: in methanol, 313.2 K
resultType: solubility (mole fraction)
# output: bare number, no unit

# get_value(readout='solubility (mole fraction)', item= COc1cc2nccc(Oc3ccc(NC(=O)C4(C(=O)Nc5ccc(F)cc5)CC4)cc3)c2cc1OC.O=C(O)C[C@H](O)C(=O)O )
0.000503

---

- assayConditions: in methanol, 318.2 K
resultType: solubility (mole fraction)

# get_value(readout='solubility (mole fraction)', item= COc1cc2nccc(Oc3ccc(NC(=O)C4(C(=O)Nc5ccc(F)cc5)CC4)cc3)c2cc1OC.O=C(O)C[C@H](O)C(=O)O )
0.000705

---

- assayConditions: in ethylene glycol, 308.2 K
resultType: solubility (mole fraction)

# get_value(readout='solubility (mole fraction)', item= COc1cc2nccc(Oc3ccc(NC(=O)C4(C(=O)Nc5ccc(F)cc5)CC4)cc3)c2cc1OC.O=C(O)C[C@H](O)C(=O)O )
0.000839

---

- assayConditions: in ethylene glycol, 313.2 K
resultType: solubility (mole fraction)
# output: bare number, no unit

# get_value(readout='solubility (mole fraction)', item= COc1cc2nccc(Oc3ccc(NC(=O)C4(C(=O)Nc5ccc(F)cc5)CC4)cc3)c2cc1OC.O=C(O)C[C@H](O)C(=O)O )
0.00109

---

- assayConditions: in DMSO, 308.2 K
resultType: solubility (mole fraction)
# output: bare number, no unit

# get_value(readout='solubility (mole fraction)', item= COc1cc2nccc(Oc3ccc(NC(=O)C4(C(=O)Nc5ccc(F)cc5)CC4)cc3)c2cc1OC.O=C(O)C[C@H](O)C(=O)O )
0.0376

---

- assayConditions: in propylene glycol, 313.2 K
resultType: solubility (mole fraction)
# output: bare number, no unit

# get_value(readout='solubility (mole fraction)', item= COc1cc2nccc(Oc3ccc(NC(=O)C4(C(=O)Nc5ccc(F)cc5)CC4)cc3)c2cc1OC.O=C(O)C[C@H](O)C(=O)O )
0.00179

---

- assayConditions: in water, 308.2 K
resultType: solubility (mole fraction)
# output: bare number, no unit

# get_value(readout='solubility (mole fraction)', item= COc1cc2nccc(Oc3ccc(NC(=O)C4(C(=O)Nc5ccc(F)cc5)CC4)cc3)c2cc1OC.O=C(O)C[C@H](O)C(=O)O )
4.82e-07

---

- assayConditions: in propylene glycol, 308.2 K
resultType: solubility (mole fraction)

# get_value(readout='solubility (mole fraction)', item= COc1cc2nccc(Oc3ccc(NC(=O)C4(C(=O)Nc5ccc(F)cc5)CC4)cc3)c2cc1OC.O=C(O)C[C@H](O)C(=O)O )
0.00131

---

- assayConditions: in DMSO, 313.2 K
resultType: solubility (mole fraction)
# output: bare number, no unit

# get_value(readout='solubility (mole fraction)', item= COc1cc2nccc(Oc3ccc(NC(=O)C4(C(=O)Nc5ccc(F)cc5)CC4)cc3)c2cc1OC.O=C(O)C[C@H](O)C(=O)O )
0.0404

---

- assayConditions: in PEG-400, 308.2 K
resultType: solubility (mole fraction)
# output: bare number, no unit

# get_value(readout='solubility (mole fraction)', item= COc1cc2nccc(Oc3ccc(NC(=O)C4(C(=O)Nc5ccc(F)cc5)CC4)cc3)c2cc1OC.O=C(O)C[C@H](O)C(=O)O )
0.00749

---

- assayConditions: in ethanol, 303.2 K
resultType: solubility (mole fraction)
# output: bare number, no unit

# get_value(readout='solubility (mole fraction)', item= COc1cc2nccc(Oc3ccc(NC(=O)C4(C(=O)Nc5ccc(F)cc5)CC4)cc3)c2cc1OC.O=C(O)C[C@H](O)C(=O)O )
0.000507
